Reported Absolute IC50 by item:
# TEST_SYSTEM: T1, 6xHis-tagged cyPD-L1 (cynomolgus monkey, UniProt Q9NZQ7 19-238 (human entry))
# T1 construct: The assay text says only '6xHis-tagged cyPD-L1'; also called cynomolgus PD-L1; not shown: 6xHis tag
# T1 sequence (Q9NZQ7 other isoform, or with tags, fused parts or gaps): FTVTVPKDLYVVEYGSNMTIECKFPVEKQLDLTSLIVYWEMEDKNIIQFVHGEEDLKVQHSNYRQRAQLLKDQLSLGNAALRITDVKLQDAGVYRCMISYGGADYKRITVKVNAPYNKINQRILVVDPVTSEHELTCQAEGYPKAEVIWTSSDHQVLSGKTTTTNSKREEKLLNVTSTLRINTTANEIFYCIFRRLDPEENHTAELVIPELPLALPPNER
# ASSAY_INFO: ELISA, plate-coated 6xHis cyPD-L1, A450
Remember to quote the unit after the number.

Consider the following illustrative entries.
>  <BINDER>
2M1 (antibody, V domains shown) VH: EVQLVESGGGLVKPGGSLRLSCAASGFTFSSYTMNWVRQAPGKGLEWVSSITSSTSYIYYADSVKGRFTISRDNAKNSLYLQMNSLRAEDTSVYYCVRDWSIAARGAWFDPWGQGTLVTVSS VL: DIQMTQSPSSVSASVGDRVTITCRASQGIGSWLAWYQQKPGKAPKFLIYAASSLQGGVPSRFSGSGSGTDFTLTISSLQPEDFATYYCQQANSFPLTFGGGTKVEIK

>  <RECORDED_ENDPOINT>
Absolute IC50

>  <MEASUREMENT>
559 ng/mL

$$$$
>  <BINDER>
2M5 (antibody, V domains shown) VH: EVQLVESGGGLVKPGGSLRVSCAASGFTLSSYSMNWVRQAPGKGLEWVSSISSSSSYIYYADSVKGRFTISRDNAKNLLYLQMNSLRAEDTAVYYCAREGGAARPSWFDPWGQGTLVTVSS VL: QAVVTQESALTTSPGETVTLTCRSSTGAVTTSNYANWVQEKPDHLFTGLIGGTNNRAPGVPARFSGSLIGDKAALTITGAQTEDEAIYFCALWYRNHWVFGGGTKLTVL

>  <RECORDED_ENDPOINT>
Absolute IC50

>  <MEASUREMENT>
234 ng/mL

$$$$

Qu. Bench note: what Absolute IC50 did 3B4 (antibody, V domains shown) VH: EVQLQESGPSLVKPSQTLSLTCSVTGDSITSGYWNWIRKFPGNKLESMGYISYTGSTYYNPSLKSRLSITRDTSKNQFYLQLNSVTTEDTATYYCASGLLWLAWFAYWGQGTLVTVSA VL: DIVMSQSPSSLAVSVGEKVTMSCKSSQSLLYSSNQKNSLAWYQQKPGQSPKLLIYWASTRESGVPDRFTGSGSGTDFTLTISSVRAEDLAVYYCQQYYGYPFTFGGGTKLEIK show?
Ans. 106 ng/mL
